- PROTOCOL NOTES: Intravenous pharmacokinetic study of Daporinad in mice (plasma, LC-qTOF-MS, NCA)
- Assay type: in vivo, mouse
- CONDITIONS: male, ICR, mouse plasma, 30 mg/kg, n = 3
VALUE TYPE: clearance (mL/min/kg)

1. O=C(/C=C/c1cccnc1)NCCCCC1CCN(C(=O)c2ccccc2)CC1: 17.9

====

- PROTOCOL NOTES: Intravenous pharmacokinetic study of Daporinad in mice (plasma, LC-qTOF-MS, NCA)
- Format: in vivo, mouse
- CONDITIONS: male, ICR, mouse plasma, 5 mg/kg, n = 3
- Procedure: The developed LC-qTOF-MS method was successfully applied to obtain the PK parameters of Daporinad in mouse plasma following IV administration at the doses of 5, 10 and 30 mg/kg. The concentrations of most PK samples were within the qualified calibration curve except some PK samples at early time point samples. […] The PK parameters were calculated with the non-compartmental analysis (NCA) using WinNonlin (version 8.0.0) and the results are summarized in Table 4. […]
VALUE TYPE: Cmax (ng/mL)

1) O=C(/C=C/c1cccnc1)NCCCCC1CCN(C(=O)c2ccccc2)CC1 [Daporinad]: 5480

Hello, the source for this data is paper PMC8954816, in case you need it.
